Would you mind telling me the reported IC50 of each entry?
Assayed target: BACE 1 (Beta Secretase enzyme) (Homo sapiens, UniProt P56817)
Sequence (P56817 46-501, species assumed): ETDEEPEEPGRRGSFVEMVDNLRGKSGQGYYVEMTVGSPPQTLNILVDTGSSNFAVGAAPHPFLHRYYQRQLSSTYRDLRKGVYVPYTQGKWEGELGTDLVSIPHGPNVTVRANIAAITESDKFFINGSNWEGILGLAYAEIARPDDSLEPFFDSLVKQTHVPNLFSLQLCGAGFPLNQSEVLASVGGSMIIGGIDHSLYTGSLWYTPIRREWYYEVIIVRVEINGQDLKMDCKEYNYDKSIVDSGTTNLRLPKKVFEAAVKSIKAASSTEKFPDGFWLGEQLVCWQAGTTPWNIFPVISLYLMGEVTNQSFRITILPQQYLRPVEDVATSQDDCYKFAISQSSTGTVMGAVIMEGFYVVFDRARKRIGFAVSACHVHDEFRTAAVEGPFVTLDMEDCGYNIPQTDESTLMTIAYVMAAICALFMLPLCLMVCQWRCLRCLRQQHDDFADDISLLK
Assay details: In vitro enzymatic BACE FRET assay
Assay type: biochemical
Particulars: IC50 range symbols, Table 1; read-out: BACE 1 FRET assay

stdin: What value of IC50 has been reported for the following compound? CC(Cc1cc2cc(-c3ncccc3CCN3CCOCC3)ccc2nc1N)C(=O)NCCC(C)(C)C (stereo not drawn)
stdout: < 500 nM

stdin: Query Nc1nc2ccc(-c3ccccc3F)cc2cc1CCC(=O)NCC1CCCCC1 next
stdout: < 500 nM

stdin: Query CO[C@@H]1CCC[C@H]1NC(=O)CCc1cc2cc(-c3ccccc3C)ccc2nc1N next
stdout: < 500 nM

stdin: Query Nc1nc2ccc(-c3ccccc3)cc2cc1CCC(=O)NCC1CCCCC1 next
stdout: 500 to 1000 nM

stdin: Query Cc1ccccc1-c1ccc2nc(N)c(CCC(=O)NCCC3CCCCC3)cc2c1 next
stdout: < 500 nM

stdin: Query Cc1ccccc1-c1ccc2nc(N)c(CCC(=O)NCc3ccnnc3)cc2c1 next
stdout: 1000 to 5000 nM

stdin: Query Cc1ccccc1-c1ccc2nc(N)c(CCC(=O)NCC(C)(C)C)cc2c1 next
stdout: < 500 nM

stdin: Query Cc1ccccc1-c1ccc2nc(N)c(CCC(=O)NCC3CCOCC3)cc2c1 next
stdout: < 500 nM

stdin: Query Cc1ccccc1-c1ccc2nc(N)c(CCC(=O)N[C@H](C)c3cccnc3)cc2c1 [Example 131] next
stdout: < 500 nM

stdin: Query Cc1cccnc1-c1ccc2nc(N)c(CC(C)C(=O)NCC(F)(F)F)cc2c1 (stereo not drawn) next
stdout: 500 to 1000 nM

stdin: Query COCCNC(=O)CCc1cc2cc(-c3ccccc3C)ccc2nc1N next
stdout: < 500 nM

stdin: Query Cc1ccccc1-c1ccc2nc(N)c(CCC(=O)NCc3ncco3)cc2c1 next
stdout: < 500 nM

stdin: Query CC(Cc1cc2cc(-c3ccc(F)cc3Cl)ccc2nc1N)C(=O)NC1CCOC(C)(C)C1 (stereo not drawn) next
stdout: < 500 nM

stdin: Query CC(=O)c1ccccc1-c1ccc2nc(N)c(CC(C)C(=O)NC3CCOC(C)(C)C3)cc2c1 (stereo not drawn) next
stdout: < 500 nM

stdin: Query CNC(=O)C(C)Cc1cc2cc(-c3c(C)cccc3C(=O)N3CCCC3)ccc2nc1N (stereo not drawn) next
stdout: < 500 nM

stdin: Query Cc1cccnc1-c1ccc2nc(N)c(CC(C)C(=O)NCC3CCC(F)(F)CC3)cc2c1 (stereo not drawn) next
stdout: < 500 nM

stdin: Query Cc1cccnc1-c1ccc2nc(N)c(CC(C)C(=O)NC[C@H]3CCCOC3)cc2c1 (stereo partly drawn) next
stdout: < 500 nM

stdin: Query CC(Cc1cc2cc(-c3ccc(F)cc3)ccc2nc1N)C(=O)NC1CCOC(C)(C)C1 (stereo not drawn) next
stdout: 1000 to 5000 nM

* * *

Would you mind telling me the reported IC50 of each entry?
Assayed target: BACE 1 (Beta Secretase enzyme) (Homo sapiens, UniProt P56817)
Assay details: In vitro enzymatic BACE FRET assay
Assay type: biochemical
Particulars: IC50 range symbols, Table 1; read-out: BACE 1 FRET assay

stdin: What value of IC50 has been reported for the following molecule? Cc1cccnc1-c1ccc2nc(N)c(CC(C)C(=O)NCCC3(C)CC3)cc2c1 (stereo not drawn)
stdout: < 500 nM

stdin: Query Cc1ccccc1-c1ccc2nc(N)c(C[C@@H](C)C(=O)NCc3cccnn3)cc2c1 next
stdout: < 500 nM

stdin: Query Cc1ccccc1-c1ccc2nc(N)c(CCC(=O)NCC(C)(C)O)cc2c1 next
stdout: 1000 to 5000 nM

stdin: Query Cc1ccccc1-c1ccc2nc(N)c(CC(C)C(=O)N[C@H](C)c3ccccc3OC(F)F)cc2c1 (stereo partly drawn) [Example 130] next
stdout: < 500 nM

stdin: Query Cc1ccccc1-c1ccc2nc(N)c(CCC(=O)NCCC3CC3)cc2c1 next
stdout: < 500 nM

stdin: Query Cc1ccc(CNC(=O)CCc2cc3cc(-c4ccccc4C)ccc3nc2N)c(F)c1 next
stdout: 1000 to 5000 nM

stdin: Query CCC1CCN1C(=O)C(C)Cc1cc2cc(-c3ncccc3C)ccc2nc1N (stereo not drawn) next
stdout: > 5000 nM

stdin: Query CC(=O)c1ccccc1-c1ccc2nc(N)c(CC(C)C(=O)Nc3ccccc3)cc2c1 (stereo not drawn) next
stdout: < 500 nM

stdin: Query CNC(=O)C(C)Cc1cc2cc(-c3ccccc3C(C)=O)ccc2nc1N (stereo not drawn) next
stdout: > 5000 nM

* * *

Assayed target: BACE 1 (Beta Secretase enzyme) (Homo sapiens, UniProt P56817)
Assay details: In vitro enzymatic BACE FRET assay
Assay type: biochemical
Particulars: IC50 range symbols, Table 1; read-out: BACE 1 FRET assay
Would you mind telling me the reported IC50 of each entry?

stdin: What value of IC50 has been reported for the following compound? Cc1ccccc1-c1ccc2nc(N)c(CC(C)C(=O)NC3CCCN(C)C3)cc2c1 (centres unmarked) [Example 64]
stdout: < 500 nM

stdin: Query CNC(=O)[C@@H](C)Cc1cc2cc(-c3c(C)cccc3C(=O)N3CCCC3)ccc2nc1N [Example 155] next
stdout: 1000 to 5000 nM

stdin: Query CC(Cc1cc2cc(-c3ncccc3Cl)ccc2nc1N)C(=O)NC[C@@H]1CCCCO1 (some centres unmarked) [Example 82] next
stdout: 500 to 1000 nM

stdin: Query Cc1ccccc1-c1ccc2nc(N)c(CCC(=O)NCc3ccccc3)cc2c1 [Example 23] next
stdout: < 500 nM

stdin: Query CC(Cc1cc2cc(-c3ncccc3Cl)ccc2nc1N)C(=O)NCCC(F)(F)F (centres unmarked) [Example 116] next
stdout: 1000 to 5000 nM

stdin: Query CC(Cc1cc2cc(-c3cccc(Cl)c3)ccc2nc1N)C(=O)NC1CCOC2(CCC2)C1 (centres unmarked) [Example 11] next
stdout: < 500 nM

stdin: Query Cc1ccccc1-c1ccc2nc(N)c(CCC(=O)NC3CCOCC3)cc2c1 [Example 15] next
stdout: < 500 nM

stdin: Query Cc1ccccc1-c1ccc2nc(N)c(C[C@@H](C)C(=O)NC3CCCC(C)(C)C3)cc2c1 (some centres unmarked) [Example 162] next
stdout: < 500 nM

* * *

Assayed target: BACE 1 (Beta Secretase enzyme) (Homo sapiens)
Assay details: In vitro enzymatic BACE FRET assay
Type: biochemical
Particulars: IC50 range symbols, Table 1; read-out: BACE 1 FRET assay
pIC50: −log10 of the molar value.
Reported endpoint: pIC50

stdin: What value of pIC50 has been reported for the following molecule? Cc1cccnc1-c1ccc2nc(N)c(CCC(=O)N[C@H](C)c3ccccc3OC(F)F)cc2c1
stdout: 5.30 to 6.00

stdin: Query Cc1ccccc1-c1ccc2nc(N)c(CC(C)C(=O)Nc3ccccc3)cc2c1 (centres unmarked) next
stdout: > 6.30

stdin: Query Cc1cccc(C(=O)N2CCCC2)c1-c1ccc2nc(N)c(CC(C)C(=O)NCc3ccccc3)cc2c1 (centres unmarked) next
stdout: > 6.30

stdin: Query Nc1nc2ccc(-c3ccccc3Cl)cc2cc1CCC(=O)NCC1CCCCC1 next
stdout: > 6.30

stdin: Query Cc1ccccc1-c1cc2cc(CC(C)C(=O)NCCC(C)(C)C)c(N)nc2cn1 (centres unmarked) next
stdout: > 6.30

stdin: Query Cc1ccccc1-c1ccc2nc(N)c(CCC(=O)NCC3CCCO3)cc2c1 (centres unmarked) next
stdout: > 6.30

stdin: Query CC(Cc1cc2cc(-c3ccccc3C#N)ccc2nc1N)C(=O)NC1CCOC(C)(C)C1 (centres unmarked) next
stdout: > 6.30

stdin: Query CC(C)(C)CCNC(=O)CCc1cc2cc(-c3ccccc3C(=O)N3CCCC3)ccc2nc1N next
stdout: > 6.30

stdin: Query COC(Cc1cc2cc(-c3ccccc3C)ccc2nc1N)C(=O)NCC1CCCCC1 (centres unmarked) next
stdout: > 6.30

stdin: Query Cc1ccccc1-c1cc2cc(CCC(=O)NCC3CCCCC3)c(N)nc2cc1F next
stdout: > 6.30

stdin: Query CC(C)c1ccccc1-c1ccc2nc(N)c(CCC(=O)NCC3CCCCC3)cc2c1 next
stdout: > 6.30

stdin: Query Cc1nccn1-c1ccc2nc(N)c(CCC(=O)NCC3CCCCC3)cc2c1 next
stdout: < 5.30

stdin: Query CC(Cc1cc2cc(-c3cccc(Cl)c3Cl)ccc2nc1N)C(=O)NC1CCOC2(CCC2)C1 (centres unmarked) next
stdout: > 6.30

stdin: Query CCn1ccc(CNC(=O)CCc2cc3cc(-c4ccccc4C)ccc3nc2N)n1 next
stdout: > 6.30

stdin: Query Cc1ccncc1-c1ccc2nc(N)c(CCC(=O)NCC3CCCCC3)cc2c1 next
stdout: 5.30 to 6.00

stdin: Query Nc1nc2ccc(-c3cccc(F)c3)cc2cc1CCC(=O)NCC1CCCCC1 next
stdout: 6.00 to 6.30

stdin: Query Cc1cccnc1-c1ccc2nc(N)c(CC(C)C(=O)N[C@H](C)C(F)(F)F)cc2c1 (some centres unmarked) next
stdout: 5.30 to 6.00

# credit: patent US9296698B2
